Tested on: HLE (Hepatocellular Carcinoma)
Assay: combination Emax (second highest fraction inhibited in the dose matrix, 72 h); higher = more inhibition; extreme values may be limits of the assay
Overview of reported combination Emax across a group of compounds:
Respond with the number and no other words.

Answered examples (5):
{"columns": ["compound", "targetUnderTest", "endpoint", "value"],
 "data": [
  ["C[C@@H](Nc1cc(F)cc(F)c1)c1cc(C(=O)N(C)C)cc2c(=O)cc(N3CCOCC3)oc12 [AZD8186] + CC(=O)c1c(C)c2cnc(Nc3ccc(N4CCNCC4)cn3)nc2n(C2CCCC2)c1=O [Palbociclib] (first compound max 10 µM, 7x7, partner max 10 µM)", "HLE (Hepatocellular Carcinoma)", "combination Emax", 0.197],
  ["C=CCn1c(=O)c2cnc(Nc3ccc(N4CCN(C)CC4)cc3)nc2n1-c1cccc(C(C)(C)O)n1 [AZD1775] + C1CN(CCC1(C(=O)N[C@@H](CCO)C2=CC=C(C=C2)Cl)N)C3=NC=NC4=C3C=CN4 [Capivasertib] (first compound max 3 µM, partner max 3 µM)", "HLE (Hepatocellular Carcinoma)", "combination Emax", 0.858],
  ["CC(=O)c1c(C)c2cnc(Nc3ccc(N4CCNCC4)cn3)nc2n(C2CCCC2)c1=O [Palbociclib] + CC1(C)CCC(CN2CCN(c3ccc(C(=O)NS(=O)(=O)c4ccc(NCC5CCOCC5)c([N+](=O)[O-])c4)c(Oc4cnc5[nH]ccc5c4)c3)CC2)=C(c2ccc(Cl)cc2)C1 [Venetoclax] (first compound max 10 µM, 7x7, partner max 1 µM)", "HLE (Hepatocellular Carcinoma)", "combination Emax", 0.0796],
  ["COc1cccc(OCCCN)c1-c1cc(Nc2cnc(C#N)cn2)n[nH]1 [Prexasertib] + O=C(c1cc(Cc2n[nH]c(=O)c3ccccc23)ccc1F)N1CCN(C(=O)C2CC2)CC1 [Olaparib] (first compound max 1 µM, 7x7, partner max 10 µM)", "HLE (Hepatocellular Carcinoma)", "combination Emax", 0.842],
  ["Cc1cc2ncnn2cc1Nc1ncc2c(n1)n(C1CCOCC1)c(=O)n2C [AZD7648] + COc1cc([C@@H]2c3cc4c(cc3[C@@H](O[C@@H]3O[C@@H]5CO[C@@H](C)O[C@H]5[C@H](O)[C@H]3O)[C@H]3COC(=O)[C@H]23)OCO4)cc(OC)c1O [Etoposide] (first compound max 10 µM, 7x7, partner max 10 µM)", "HLE (Hepatocellular Carcinoma)", "combination Emax", 0.729]
]}

(Q) Provide combination Emax, tested on HLE (Hepatocellular Carcinoma), for CN(CCO)CC[C@H](CSc1ccccc1)Nc1ccc(S(=O)(=O)NC(=O)c2ccc(N3CCC([C@@H](O)c4ccccc4-c4ccc(Cl)cc4)CC3)cc2)cc1S(=O)(=O)C(F)(F)F [AZD4320] + CC(=O)O[C@H]1C(=O)[C@@]2(C)[C@H]([C@H](OC(=O)c3ccccc3)[C@]3(O)C[C@H](OC(=O)[C@H](O)[C@@H](NC(=O)c4ccccc4)c4ccccc4)C(C)=C1C3(C)C)[C@]1(OC(C)=O)CO[C@@H]1C[C@@H]2O [Paclitaxel] (first compound max 1 µM, 7x7, partner max 3 µM) .
(A) 0.93

----------
Tested on: HCT-116 (Colorectal Carcinoma);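 also: after 72 h of two-drug dosing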
Experiment: Bliss excess, mean over the matrix (fraction); higher = more synergy
endpoint: Bliss excess

{"columns": ["compound", "Bliss excess"],
 "data": [
  ["COc1nnc2ccc(N3CCC(c4ccc(OCCN5CCN(C)C(=O)[C@H]5C)cc4)CC3)nn12 [AZD5153] + Cn1cnc2c(F)c(Nc3ccc(Br)cc3Cl)c(C(=O)NOCCO)cc21 [Selumetinib] (first compound max 1 µM, 7x7, partner max 10 µM)", -0.029],
  ["Cc1c2c(nn1C)CSCc1cc(n(C)n1)CSc1cc(c3ccccc3c1)OCCCc1c(C(=O)O)n(C)c3c-2c(Cl)ccc13 [AZD5991] + Cc1cc2ncnn2cc1Nc1ncc2c(n1)n(C1CCOCC1)c(=O)n2C [AZD7648] (first compound max 1 µM, 7x7, partner max 10 µM)", 0.013],
  ["C=CCn1c(=O)c2cnc(Nc3ccc(N4CCN(C)CC4)cc3)nc2n1-c1cccc(C(C)(C)O)n1 [AZD1775] + CCc1c2c(nc3ccc(O)cc13)-c1cc3c(c(=O)n1C2)COC(=O)[C@]3(O)CC [SN-38] (first compound max 1 µM, partner max 0.3 µM)", -0.0302]
]}

Then this compound:
(Q) Answer with the recorded Bliss excess of C=CCn1c(=O)c2cnc(Nc3ccc(N4CCN(C)CC4)cc3)nc2n1-c1cccc(C(C)(C)O)n1 [AZD1775] + O=C(c1cc(Cc2n[nH]c(=O)c3ccccc23)ccc1F)N1CCN(C(=O)C2CC2)CC1 [Olaparib] (first compound max 1 µM, partner max 10 µM) only.
(A) -0.0239

----------
Test system: A172 (Glioblastoma)
Experiment: combination Emax (second highest fraction inhibited in the dose matrix, 72 h); higher = more inhibition; extreme values may be limits of the assay
endpoint: combination Emax
Respond with the number and no other words.

Answered examples (5):
{"columns": ["compound", "value"],
 "data": [
  ["NC1(C(=O)N[C@@H](CCO)c2ccc(Cl)cc2)CCN(c2ncnc3[nH]ccc23)CC1 [Capivasertib] + CC(=O)c1c(C)c2cnc(Nc3ccc(N4CCNCC4)cn3)nc2n(C2CCCC2)c1=O [Palbociclib] (first compound max 10 µM, 7x7, partner max 10 µM)", 0.671],
  ["Cn1cnc2c(F)c(Nc3ccc(Br)cc3Cl)c(C(=O)NOCCO)cc21 [Selumetinib] + C=CCn1c(=O)c2cnc(Nc3ccc(N4CCN(C)CC4)cc3)nc2n1-c1cccc(C(C)(C)O)n1 [AZD1775] (first compound max 10 µM, partner max 1 µM)", 0.365],
  ["Cn1cnc2c(F)c(Nc3ccc(Br)cc3Cl)c(C(=O)NOCCO)cc21 [Selumetinib] + CCN(CCO)CCCOc1ccc2c(Nc3cc(CC(=O)Nc4cccc(F)c4)[nH]n3)ncnc2c1 [AZD2811] (first compound max 10 µM, 7x7, partner max 1 µM)", 0.416],
  ["Cn1cnc2c(F)c(Nc3ccc(Br)cc3Cl)c(C(=O)NOCCO)cc21 [Selumetinib] + C[C@@H]1COCCN1C2=NC(=NC(=C2)C3(CC3)[S@](=N)(=O)C)C4=C5C=CNC5=NC=C4 [AZD6738] (first compound max 10 µM, 7x7, partner max 10 µM)", 0.549],
  ["COc1cccc2c1C(=O)c1c(O)c3c(c(O)c1C2=O)C[C@@](O)(C(=O)CO)C[C@@H]3O[C@H]1C[C@H](N)[C@H](O)[C@H](C)O1 [Doxorubicin] + Cc1cc2ncnn2cc1Nc1ncc2c(n1)n(C1CCOCC1)c(=O)n2C [AZD7648] (first compound max 1 µM, 7x7, partner max 10 µM)", 0.94]
]}

(Q) Answer with the recorded combination Emax of C[C@@H](c1ccc2nccn2c1)n1nnc2ncc(-c3cnn(C)c3)nc21 [Savolitinib] + CN(CC[C@H](CSC1=CC=CC=C1)NC2=C(C=C(C=C2)S(=O)(=O)NC(=O)C3=CC=C(C=C3)N4CCC(CC4)[C@H](C5=CC=CC=C5C6=CC=C(C=C6)Cl)O)S(=O)(=O)C(F)(F)F)CCO [AZD4320] (first compound max 1 µM, 7x7, partner max 1 µM) only.
(A) 0.112

(Q) Answer with the recorded combination Emax of C[C@@H](c1ccc2nccn2c1)n1nnc2ncc(-c3cnn(C)c3)nc21 [Savolitinib] + Cc1c2c(nn1C)CSCc1cc(n(C)n1)CSc1cc(c3ccccc3c1)OCCCc1c(C(=O)O)n(C)c3c-2c(Cl)ccc13 [AZD5991] (first compound max 1 µM, 7x7, partner max 1 µM) only.
(A) 0.112

----------
Test system: HuO9 (Osteosarcoma)
Assay: combination Emax (second highest fraction inhibited in the dose matrix, 72 h); higher = more inhibition; extreme values may be limits of the assay
endpoint: combination Emax
Respond with the number and no other words.

{"columns": ["compound", "targetUnderTest", "value"],
 "data": [
  ["CC(=O)c1c(C)c2cnc(Nc3ccc(N4CCNCC4)cn3)nc2n(C2CCCC2)c1=O [Palbociclib] + Cn1cnc2c(F)c(Nc3ccc(Br)cc3Cl)c(C(=O)NOCCO)cc21 [Selumetinib] (first compound max 10 µM, 7x7, partner max 10 µM)", "HuO9 (Osteosarcoma)", 0.419]
]}

(Q) Answer with the recorded combination Emax of CC1(C)CCC(CN2CCN(c3ccc(C(=O)NS(=O)(=O)c4ccc(NCC5CCOCC5)c([N+](=O)[O-])c4)c(Oc4cnc5[nH]ccc5c4)c3)CC2)=C(c2ccc(Cl)cc2)C1 [Venetoclax] + COc1cc(Nc2ncc3c(n2)-c2ccc(Cl)cc2C(c2c(F)cccc2OC)=NC3)ccc1C(=O)O [Alisertib] (first compound max 1 µM, 7x7, partner max 10 µM) only.
(A) 0.682

(Q) Answer with the recorded combination Emax of CN(C)CCCOc1ccc(-c2ccc3ncc4c(c3c2)n(C2CCOCC2)c(=O)n4C)cn1 [AZD0156] + CCN(CCO)CCCOc1ccc2c(Nc3cc(CC(=O)Nc4cccc(F)c4)[nH]n3)ncnc2c1 [AZD2811] (first compound max 1 µM, 7x7, partner max 1 µM) only.
(A) 0.224

(Q) Answer with the recorded combination Emax of Cn1cnc2c(F)c(Nc3ccc(Br)cc3Cl)c(C(=O)NOCCO)cc21 [Selumetinib] + CC(C)n1c(=O)n(C)c2cnc3cc(F)c(-c4ccc(OCCCN5CCCCC5)nc4)cc3c21 [AZD1390] (first compound max 10 µM, 7x7, partner max 0.3 µM) only.
(A) 0.626

(Q) Answer with the recorded combination Emax of CS(=O)(=O)CCNCc1ccc(-c2ccc3ncnc(Nc4ccc(OCc5cccc(F)c5)c(Cl)c4)c3c2)o1 [Lapatinib] + NC1(c2ccc(-c3nc4ccn5c(=O)[nH]nc5c4cc3-c3ccccc3)cc2)CCC1 [MK-2206] (first compound max 10 µM, 7x7, partner max 10 µM) only.
(A) 0.995

(Q) Answer with the recorded combination Emax of CCc1c2c(nc3ccc(O)cc13)-c1cc3c(c(=O)n1C2)COC(=O)[C@]3(O)CC [SN-38] + O=C(c1cc(Cc2n[nH]c(=O)c3ccccc23)ccc1F)N1CCN(C(=O)C2CC2)CC1 [Olaparib] (first compound max 0.3 µM, 7x7, partner max 10 µM) only.
(A) 0.996

(Q) Answer with the recorded combination Emax of NC1(C(=O)N[C@@H](CCO)c2ccc(Cl)cc2)CCN(c2ncnc3[nH]ccc23)CC1 [Capivasertib] + CCN(CCO)CCCOc1ccc2c(Nc3cc(CC(=O)Nc4cccc(F)c4)[nH]n3)ncnc2c1 [AZD2811] (first compound max 10 µM, 7x7, partner max 1 µM) only.
(A) 0.464
